// cross-source set; read-out = pIC50; system = Cannabinoid receptor 1 (Rattus norvegicus, UniProt P20272)
Sequence (P20272 whole entry): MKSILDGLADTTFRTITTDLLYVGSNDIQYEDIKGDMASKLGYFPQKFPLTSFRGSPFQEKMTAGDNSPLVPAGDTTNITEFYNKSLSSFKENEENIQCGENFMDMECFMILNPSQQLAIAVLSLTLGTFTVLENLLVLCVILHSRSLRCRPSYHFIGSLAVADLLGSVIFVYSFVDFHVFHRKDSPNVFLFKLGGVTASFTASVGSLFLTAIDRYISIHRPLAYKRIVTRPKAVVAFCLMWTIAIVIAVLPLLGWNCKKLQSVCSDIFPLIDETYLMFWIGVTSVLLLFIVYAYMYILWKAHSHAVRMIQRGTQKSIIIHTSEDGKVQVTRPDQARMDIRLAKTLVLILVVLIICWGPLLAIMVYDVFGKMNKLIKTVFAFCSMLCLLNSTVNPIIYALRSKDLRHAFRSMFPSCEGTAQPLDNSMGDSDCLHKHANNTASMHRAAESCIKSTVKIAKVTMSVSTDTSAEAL
pIC50: −log10 of the molar value.
MEASURED_METRIC: pIC50

// known answers, use as guide
[[record]]
smiles_input = "CSc1nc(NC2CCCCC2)cc(N[C@@H](C)[C@@H](Cc2ccc(Cl)cc2)c2cccc(Br)c2)n1"
measured_on = "Cannabinoid receptor 1 (Rattus norvegicus, UniProt P20272)"
measured_metric = "pIC50"
observed = 7.24

[[record]]
smiles_input = "Clc1ccc(C2(c3nnc(-c4nn(-c5ccc(Cl)cc5Cl)c(-c5ccc(Br)cc5)c4Cn4cncn4)o3)CC2)cc1"
measured_on = "Cannabinoid receptor 1 (Rattus norvegicus, UniProt P20272)"
measured_metric = "pIC50"
observed = 9.24

[[record]]
smiles_input = "CCCCNc1cc(N[C@@H](C)[C@@H](Cc2ccc(Cl)cc2)c2cccc(Br)c2)ncn1"
measured_on = "Cannabinoid receptor 1 (Rattus norvegicus, UniProt P20272)"
measured_metric = "pIC50"
observed = 7.79


[1] CC(C)(C)c1nnc(-c2nn(-c3ccc(Cl)cc3Cl)c(-c3ccc(Cl)cc3)c2C(=O)N2CCCC2)o1
[2] CCC(C)(C)NC(=O)c1nn(-c2ccccc2Cl)c(-c2ccc(Cl)cc2)c1Cn1cncn1
Query: Between the entries labeled 1 and 2 , whose measured pIC50 is lower? Respond with the label that goes with your answer.
Response: 1

[A] CC[C@H](Nc1cc(NC2CCCCC2)ncn1)[C@@H](Cc1ccc(Cl)cc1)c1cccc(Br)c1
[B] CN(C)C(=O)c1c(-c2nnc(C(C)(C)C)o2)nn(-c2ccc(Cl)cc2Cl)c1-c1ccc(Cl)cc1
Query: Problem: Given the entries A and B , determine which has the lower reported pIC50. Write down the label of the entry you select.
Response: A

###

pIC50: −log10 of the molar value.
We begin with pIC50 values for Cannabinoid receptor 1 (Rattus norvegicus, UniProt P20272), as collected from the published literature.
MEASURED_METRIC: pIC50

[[record]]
molecule = "CC(C)(C)c1nnc(-c2nn(-c3ccc(Cl)cc3Cl)c(-c3ccc(Cl)cc3)c2C(=O)NC2CCCC2)o1"
measured_metric = "pIC50"
observed = 8.14

[[record]]
molecule = "CCCc1c(-c2nnc(C(C)(C)C)o2)nn(-c2ccc(Cl)cc2Cl)c1-c1ccc(Cl)cc1"
measured_metric = "pIC50"
observed = 7.47

[[record]]
molecule = "C[C@H](Nc1cc(N2CCC(C(F)(F)F)CC2)ncn1)[C@@H](Cc1ccc(Cl)cc1)c1cccc(Br)c1"
measured_metric = "pIC50"
observed = 7.12


[a] O=C(NC1CCCCCC1)N1CCN(C(c2ccc(Cl)cc2)c2ccc(Cl)cc2Cl)CC1 (stereo not drawn)
[b] C[C@H]1CCCC[C@@H]1NC(=O)c1nn(-c2ccc(Cl)cc2Cl)c(-c2ccc(Cl)cc2)c1Cn1cncn1
Query: Consider entries a and b . Which has the numerically lower pIC50? Indicate which entry you chose by stating its label.
Response: a

[1] CCCCCNc1cc(N[C@@H](C)[C@@H](Cc2ccc(Cl)cc2)c2cccc(Br)c2)nc(C(F)(F)F)n1
[2] C[C@H](Nc1cc(OC2CCCCC2)ncn1)[C@@H](Cc1ccc(Cl)cc1)c1cccc(Br)c1
Query: Pick one, 1 or 2 : lowest reported pIC50. Write the label of whichever entry you select.
Response: 2

###

Multi-source literature compilation: IC50 on Cannabinoid receptor 1 (Rattus norvegicus).
MEASURED_METRIC: IC50 (nM)

Here's what some known entries look like.
[[record]]
compound = "O=C(NC1CCCCCC1)N1CCN(C(c2ccc(Br)cc2)c2ccccc2Cl)CC1 (stereo unspecified)"
observed = 82.3

[[record]]
compound = "CC(NC(=O)c1nn(-c2ccc(Cl)cc2Cl)c(-c2ccc(Cl)cc2)c1Cn1cncn1)C(C)(C)C (stereo unspecified)"
observed = 8.44

[[record]]
compound = "CCNC1(C(N)=O)CCN(C(=O)c2nn(-c3ccc(Cl)cc3Cl)c(-c3ccc(Cl)cc3)c2Cn2cncn2)CC1"
observed = 878

[[record]]
compound = "O=C(NCc1ccccn1)c1nn(-c2ccc(Cl)cc2Cl)c(-c2ccc(Cl)cc2)c1Cn1cncn1"
observed = 74.8

[[record]]
compound = "O=C(N[C@H]1CCCC[C@@H]1O)c1nn(-c2ccc(Cl)cc2Cl)c(-c2ccc(Cl)cc2)c1Cn1cncn1"
observed = 60.7


[1] C[C@H](Nc1cc(N2CCOCC2)ncn1)[C@@H](Cc1ccc(Cl)cc1)c1cccc(Br)c1
[2] O=C(NC1(c2ccccc2)CC1)c1nn(-c2ccc(Cl)cc2Cl)c(-c2ccc(Cl)cc2)c1Cn1cncn1
[3] Cc1c(-c2nnnn2C2CCCCCC2)nn(-c2ccc(Cl)cc2Cl)c1-c1ccc(Cl)cc1
[4] CC(C)NC(=O)c1c(-c2nnc(C(C)(C)C)o2)nn(-c2ccc(Cl)cc2Cl)c1-c1ccc(Cl)cc1
[5] CCN(C)c1cc(N[C@@H](C)[C@@H](Cc2ccc(Cl)cc2)c2cccc(Br)c2)ncn1
Query: Ascending by IC50, please: list the compounds accordingly. In plain terms: list the labels in the order you were asked to.
Response: 2, 4, 3, 1, 5

###

// compounds with pIC50 on UniProt P20272, multi-source literature
pIC50: −log10 of the molar value.
MEASURED_METRIC: pIC50

A selection of reference data follows.
[[record]]
smiles_input = "O=C(c1nn(-c2ccc(Cl)cc2Cl)c(-c2ccc(Cl)cc2)c1Cn1cncn1)N1CCN(c2ccccc2)CC1"
measured_metric = "pIC50"
observed = 8.05

[[record]]
smiles_input = "C[C@H]1CC[C@@H](NC(=O)c2nn(-c3ccc(Cl)cc3Cl)c(-c3ccc(Cl)cc3)c2Cn2cncn2)CC1"
measured_metric = "pIC50"
observed = 7.77

[[record]]
smiles_input = "O=c1n(Cc2ccc(C(F)(F)F)nc2)nc2c(-c3ccncc3)c(-c3ccc(Cl)cc3)cnn12"
measured_metric = "pIC50"
observed = 7.43

[[record]]
smiles_input = "CCCNC(=O)c1c(-c2nnc(C(C)(C)C)o2)nn(-c2ccc(Cl)cc2Cl)c1-c1ccc(Cl)cc1"
measured_metric = "pIC50"
observed = 8.24


[1] O=C(c1nn(-c2ccc(Cl)cc2Cl)c(-c2ccc(Cl)cc2)c1Cn1cncn1)N1CCN(c2ncccn2)CC1
[2] CCCCc1nnc(-c2nn(-c3ccc(Cl)cc3Cl)c(-c3ccc(Cl)cc3)c2C)o1
[3] Cc1nc(NCc2ccc(C(F)(F)F)cc2)cc(N[C@@H](C)[C@@H](Cc2ccc(Cl)cc2)c2cccc(Br)c2)n1
[4] CC(C)(C)NC(=O)c1nn(-c2ccccc2Cl)c(-c2ccc(Br)cc2)c1Cn1cncn1
Query: Sort ascending by pIC50. Provide the labels, sequenced as the question asks.
Response: 3, 1, 2, 4
(3: 6.80, 1: 7.25, 2: 7.46, 4: 8.10)

###

# merged literature set: IC50 with Cannabinoid receptor 1 (Rattus norvegicus, UniProt P20272)
MEASURED_METRIC: IC50 (nM)

Consider the worked cases shown below.
[[record]]
smiles_input = "CC(C)(C)c1nnc(-c2nn(-c3ccc(Cl)cc3Cl)c(-c3ccc(Cl)cc3)c2C(=O)NC2CC2)o1"
measured_on = "Cannabinoid receptor 1 (Rattus norvegicus, UniProt P20272)"
measured_metric = "IC50"
observed = 3.27

[[record]]
smiles_input = "Clc1ccc(C[C@H](CNc2cc(NC3CCCCCC3)ncn2)c2cccc(Br)c2)cc1"
measured_on = "Cannabinoid receptor 1 (Rattus norvegicus, UniProt P20272)"
measured_metric = "IC50"
observed = 1540

[[record]]
smiles_input = "CCCc1nnc(-c2nn(-c3ccc(Cl)cc3Cl)c(-c3ccc(Cl)cc3)c2C)o1"
measured_on = "Cannabinoid receptor 1 (Rattus norvegicus, UniProt P20272)"
measured_metric = "IC50"
observed = 160


[P] CC(=O)CNC(=O)c1c(-c2nnc(C(C)(C)C)o2)nn(-c2ccc(Cl)cc2Cl)c1-c1ccc(Cl)cc1
[Q] Cc1c(C(=O)NC(C)(C)c2nnn(C)n2)nn(-c2ccc(Cl)cc2Cl)c1-c1ccc(Cl)cc1
[R] Cc1c(C(=O)NC(C)(C)c2cn3ccsc3n2)nn(-c2ccc(Cl)cc2Cl)c1-c1ccc(Cl)cc1
Query: Kindly order the items shown according to IC50, from the highest value down. Reply format: the labels, ordered as requested.
Response: Q, R, P
(Q: 88 nM, R: 11 nM, P: 3.51 nM)

###

Target or system Cannabinoid receptor 1 (Rattus norvegicus, UniProt P20272); metric IC50; compiled from varied reports.
MEASURED_METRIC: IC50 (nM)

[[record]]
molecule = "O=C(NCc1ccccc1)c1nn(-c2ccc(Cl)cc2Cl)c(-c2ccc(Cl)cc2)c1Cn1cncn1"
measured_metric = "IC50"
observed = 19.2

[[record]]
molecule = "O=C(NC1CCCCC1)N1CCN(C(c2ccc(Cl)cc2)c2cccc(Cl)c2Cl)CC1 (centres undefined)"
measured_metric = "IC50"
observed = 186

[[record]]
molecule = "CC[C@H](Nc1cc(N2CCCCC2)ncn1)[C@@H](Cc1ccc(Cl)cc1)c1cccc(Br)c1"
measured_metric = "IC50"
observed = 285


[1] O=C(NC1(C(F)(F)F)CCC1)c1nn(-c2ccccc2Cl)c(-c2ccc(Br)cc2)c1Cn1cncn1
[2] C[C@H]1CC[C@H](NC(=O)c2nn(-c3ccc(Cl)cc3Cl)c(-c3ccc(Cl)cc3)c2Cn2cncn2)CC1
[3] CC(C)(NC(=O)c1cn(-c2ccc(Cl)cc2Cl)c(-c2ccc(Cl)cc2)n1)c1noc(C(F)(F)F)n1
Query: Arrange the 3 entries by IC50 so the values rise. Answer by naming the labels in the order asked.
Response: 1, 2, 3
(1: 7.48 nM, 2: 14.2 nM, 3: 30 nM)
